# MIC listing for each entry below
- Test system: Escherichia coli ML4704
- ASSAY_PROCEDURE: minimum inhibitory concentration (MIC)
- Format: cell-based
- CONDITION_SET: Escherichia coli ML4704; Tables 2A, 2B; read-out: MIC
- Experimental: The minimum inhibitory concentration (MIC) of the compounds obtained in the above Examples were measured according to the standard method of Japan Society of Chemotherapy.
API: value field is a number in µg/mL; no unit string.

Examples with their reported MIC follow.
COMPOUND	MIC, µg/mL
Cc1cc(SCC2=C(C(=O)O)N3C(=O)C(NC(=O)C(=NOC(C)(C)C(=O)O)c4csc(N)n4)[C@H]3SC2)n2nc(CO)nc2n1 (stereo partly drawn) [Example 20]	0.39
CC(C)(ON=C(C(=O)NC1C(=O)N2C(C(=O)O)=C(CSc3cc(C(=O)O)nc4nc(CO)nn34)CSC12)c1csc(N)n1)C(=O)NNC(=O)c1ccc(O)c(O)c1 (stereo not drawn) [Example 30]	0.025

Now consider the entry below.
(Q) Please give the measured MIC for this compound: CC(C)(O/N=C(\C(=O)N[C@@H]1C(=O)N2C(C(=O)[O-])=C(C[n+]3ccccc3)CS[C@H]12)c1csc(N)n1)C(=O)O [CAZ, ceftazidime, reference compound]
(A) 0.05
